- assay_notes: label from the status in PepcDB records
endpoint: protein production

MGGKWSTPSFDEAARLVLGRGFHHVSLCAAGYFSDGNETIHRESVLSAIDPSVRVETIPCLNDSPHLIACLAGRVVAASRQILAFSGDLKG failed
MAIPGNMWIYDDGGALIKGGCDVADREFSIEFKGFHHNLSIPTDHATGKPTGTRQHSPMIIVKEFDYSSPYLYKAVATGQNLKSAEIKWYKISDAGQEVEYFNMLLEGVRIVSISPTMASPEDKNNNHLESVELRYEKITWKHCDGNIIFTDAWNERQTA not failed
MEQNITLKDRSKLVISGVEHIYSFNDKRVELKTSVGEMVIEGENLDMSKLSIDENIISIDGTINSMVYAKPKKPQESFLKKVFR failed
MDQMEKITTGVSYTTSAVGTGYWFLQLLDRVSPSQWAAIGVLGSLLFGLLTYLTEVYWQ failed
MRGYVLGLLALNLLTLIWGTTFVVVKGAVEGMAPSLLILLRFGVAALFFLPWLFRLPVGVFGPGMELAFWLFVGYASQTLGLAHTSASRSAFITALSVVLVPLLLRLAGREVGPAFLAAFLALAGVGLLSYDPYQPPFNVGDLWTFLTALAYALYIVRLEVHARAFPSLPLTAVQVLGTALFALPWVLAEGGAWGPVAWGAVLYLGVVATALTTWLQTWGQRHVPAPQAAILYTLEPVWAAFFAYLALGERLSPSGLLGALLVLLATLLAIRRSPA failed
MGHHHHHHSHMAKTYDYLFKLLLIGDSGVGKTCVLFRFSEDAFNSTFISTIGIDFKIRTIELDGKRIKLQIWDTAGQERFRTITTAYYRGAMGIMLVYDITNEKSFDNIRNWIRNIEEHASADVEKMILGNKCDVNDKRQVSKERGEKLALDYGIKFMETSAKANINVENAFFTLARDIKAKMDKKLEGNSPQGSNQGVKITPDQQKRSSFFRCVLL not failed
MSEKLQKVLARAGHGSRREIESIIEAGRVSVDGKIAKLGDRVEVTPGLKIRIDGHLISVRESAEQICRVLAYYKPEGELCTRNDPEGRPTVFDRLPKLRGARWIAVGRLDVNTCGLLLFTTDGELANRLMHPSREVEREYAVRVFGQVDDAKLRDLSRGVQLEDGPAAFKTIKFSGGEGINQWYNVTLTEGRNREVRRLWEAVGVQVSRLIRVRYGDIPLPKGLPRGGWTELDLAQTNYLRELVELPPETSSKVAVEKDRRRMKANQIRRAVKRHSQVSGGRRSGGRNNNG not failed
PEKLPYLVELSPDGSDSRDKPKLYRLQLSVTEVGTEKFDDNSIQLFGPGIQPHHCDLTNMDGVVTVTPRSMDAETYVDGQRISETTMLQSGMRLQFGTSHVFKFVDP not failed

QUERY: Look up and report measured protein production for this entry: MEQQKDYIELYENEELIEIREARMDDLDTIAKFNYNLAKETEGKELDMDVLTKGVKALLLDERKGKYHVYTVFDKVVAQIMYTYEWSDWRNGNFLWIQSVYVDKEYRRKGIFNYLFNYIKNICDKDENIVGMRLYVEKENINAKATYESLNMYECDYNMYEYEVIHS
RESULT: failed

QUERY: Look up and report measured protein production for this entry: LSIPEDYQARLQPNRVEGSYPLVRMEFTGATVDAPLMSQISRKYNIDVSILSSDLDYAGGVKFGMMVAELFGNEQDDSAAIEYLREHNVKVEVLGYVL
RESULT: not failed

Recorded values, source a protein production outcome set (Wang et al. 2014).
